Biological target: UniProtKB P56450
Sequence (P56450 whole entry): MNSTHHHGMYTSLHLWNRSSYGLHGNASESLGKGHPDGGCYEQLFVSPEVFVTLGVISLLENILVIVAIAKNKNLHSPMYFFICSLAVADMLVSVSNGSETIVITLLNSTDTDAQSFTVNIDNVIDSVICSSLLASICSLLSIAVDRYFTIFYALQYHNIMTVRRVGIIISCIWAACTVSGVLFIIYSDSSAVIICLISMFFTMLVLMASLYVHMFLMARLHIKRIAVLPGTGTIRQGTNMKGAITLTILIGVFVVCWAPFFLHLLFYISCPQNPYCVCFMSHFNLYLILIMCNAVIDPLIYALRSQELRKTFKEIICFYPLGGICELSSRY
Test: Functional bioassay, CRE/β-galactosidase reporter in HEK-293 cells stably expressing mMC4R
Conditions: slight agonist = some stimulatory response at 100 μM, not enough to determine an EC50
Where a SMILES comes first, the peptide text is derived from it. Bridges are numbered along the chain shown (N, C = ends). [ ]: non-standard residue; d: D form.
assay_metric: pharmacology in words at mMC4R

C[C@@H]1NC(=O)[C@H](CC(N)=O)NC(=O)[C@H](Cc2c[nH]c3ccccc23)NC(=O)[C@H](CCCNC(=N)N)NC(=O)[C@@H](Cc2ccc3ccccc3c2)NC(=O)[C@H](Cc2c[nH]cn2)NC(=O)[C@@H](NC(=O)[C@@H](N)Cc2ccc(O)cc2)CC(=O)NC[C@@H](C(=O)N[C@@H](Cc2ccc(O)cc2)C(N)=O)NC(=O)[C@H](Cc2ccccc2)NC1=O | Partial agonist
C[C@@H]1NC(=O)[C@H](CC(N)=O)NC(=O)[C@H](Cc2c[nH]c3ccccc23)NC(=O)[C@H](CCCNC(=N)N)NC(=O)[C@@H](Cc2ccc(I)cc2)NC(=O)[C@H](Cc2c[nH]cn2)NC(=O)[C@@H](NC(=O)[C@@H](N)Cc2ccc(O)cc2)CC(=O)NC[C@@H](C(=O)N[C@@H](Cc2ccc(O)cc2)C(N)=O)NC(=O)[C@H](Cc2ccccc2)NC1=O | Partial agonist
C[C@@H]1NC(=O)[C@H](CC(N)=O)NC(=O)[C@@H](Cc2ccccc2)NC(=O)[C@H](Cc2ccccc2)NC(=O)[C@H](CCCNC(=N)N)NC(=O)[C@@H](NC(=O)[C@@H](N)Cc2ccc(O)cc2)CSSC[C@@H](C(=O)N[C@@H](Cc2ccc(O)cc2)C(N)=O)NC(=O)[C@H](Cc2ccccc2)NC1=O [SEQ ID NO: 1] (H-YCRF[dF]NAFCY-NH2; disulfide 2-9) | Partial agonist

###

Molecular target: mMC3R (Mus musculus, UniProt P33033)
Sequence (P33033 whole entry): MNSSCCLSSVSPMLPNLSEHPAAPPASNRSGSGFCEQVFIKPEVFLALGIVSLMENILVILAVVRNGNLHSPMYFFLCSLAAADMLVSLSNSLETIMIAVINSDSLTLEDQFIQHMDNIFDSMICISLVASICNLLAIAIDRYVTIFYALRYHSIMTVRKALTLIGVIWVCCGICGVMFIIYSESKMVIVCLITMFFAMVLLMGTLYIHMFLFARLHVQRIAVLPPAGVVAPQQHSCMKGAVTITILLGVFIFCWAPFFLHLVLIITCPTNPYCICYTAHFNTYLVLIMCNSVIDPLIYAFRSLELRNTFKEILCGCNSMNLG
Experiment: Functional bioassay, CRE/β-galactosidase reporter in HEK-293 cells stably expressing mMC3R
Conditions: slight agonist = some stimulatory response at 100 μM, not enough to determine an EC50
Where a SMILES comes first, the peptide text is derived from it. Bridges are numbered along the chain shown (N, C = ends). [ ]: non-standard residue; d: D form. Nle = CCCC[C@H](N)C(=O)O; Dap = NC[C@H](N)C(=O)O
assay_metric: pharmacology in words at mMC3R

C[C@@H]1NC(=O)[C@H](CC(N)=O)NC(=O)[C@H](Cc2c[nH]c3ccccc23)NC(=O)[C@H](CCCNC(=N)N)NC(=O)[C@H](Cc2ccccc2)NC(=O)[C@@H](NC(=O)[C@@H](N)Cc2ccc(O)cc2)CC(=O)NC[C@@H](C(=O)N[C@@H](Cc2ccc(O)cc2)C(N)=O)NC(=O)[C@H](Cc2ccccc2)NC1=O [SEQ ID NO: 6] (H-YDFRWNAF[Dap]Y-NH2; lactam 2-9) | Slight agonist
CCCC[C@H](NC(C)=O)C(=O)N[C@H]1CC(=O)NCCCC[C@@H](C(N)=O)NC(=O)[C@@H](Cc2ccccc2)NC(=O)[C@H](Cc2ccccc2)NC(=O)[C@H](CCCNC(=N)N)NC(=O)[C@H](Cc2c[nH]cn2)NC1=O [SEQ ID NO: 23, Ac-Nle-c[Asp-His-Arg-Phe-DPhe-Lys]] (Ac-[Nle]DHRF[dF]K-NH2; lactam 2-7) | Slight agonist
